# experimental.protocol: Toxicity in po or ip dosed mouse administered as single dose measured after 14 days
# Format: organism-based
# study.conditions: in vivo
observable: LD50 at 336 h

Request the reported LD50 at 336 h associated with C=C(C)[C@@H]1CC[C@]2(CO)CC[C@]3(C)[C@H](CC[C@@H]4[C@@]5(C)Cc6nn(C(C)=O)nc6C(C)(C)[C@@H]5CC[C@]43C)[C@@H]12
> 600 mg/kg
